All figures here come from ChEMBL document CHEMBL1146914.

The reader will find reported Activity values listed item by item below.
target: Thymidine kinase, cytosolic (Homo sapiens) (UniProt P04183); experiment: Activity against human TK1 assessed as thymidine phosphorylation relative to thymidine; format: functional; design: concentration or dose not given beside the values
Sequence (P04183 whole entry): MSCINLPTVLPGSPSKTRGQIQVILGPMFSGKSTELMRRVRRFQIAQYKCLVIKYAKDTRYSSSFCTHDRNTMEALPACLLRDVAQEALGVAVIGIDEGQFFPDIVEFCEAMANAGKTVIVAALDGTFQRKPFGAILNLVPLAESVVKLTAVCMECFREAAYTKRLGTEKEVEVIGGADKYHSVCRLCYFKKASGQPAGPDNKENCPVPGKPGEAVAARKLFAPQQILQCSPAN

{"columns": ["MOLECULE", "Activity (%)"],
 "data": [
  ["CC(=O)O[C@H]1C(=O)C2(C)[C@@H](OC(=O)NCCOCCOCCn3c(=O)c(C)cn([C@H]4C[C@H](O)[C@@H](CO)O4)c3=O)C[C@H]3OC[C@@]3(OC(C)=O)[C@H]2[C@H](OC(=O)c2ccccc2)[C@]2(O)C[C@H](OC(=O)[C@H](O)[C@@H](NC(=O)c3ccccc3)c3ccccc3)C(C)=C1C2(C)C (some centres not stated)", 44],
  ["CC(=O)O[C@@]12CO[C@@H]1C[C@H](O)C1(C)C(=O)[C@H](OC(=O)NCCCn3c(=O)c(C)cn([C@H]4C[C@H](O)[C@@H](CO)O4)c3=O)C3=C(C)[C@@H](OC(=O)[C@H](O)[C@@H](NC(=O)c4ccccc4)c4ccccc4)C[C@@](O)([C@@H](OC(=O)c4ccccc4)[C@@H]12)C3(C)C (some centres not stated)", 46]
]}
